Biological target: T1, cynomolgus monkey IL-6 (cynomolgus monkey, UniProt P79341 28-212, limits assumed)
T1 construct: also called HIS-cyIL-6
Assay: SPR; periplasmic fraction
MEASUREMENT LABEL: koff
The reply should read as a number followed by its unit.

{"columns": ["BINDER", "koff"],
 "data": [
  ["Fab 48C10 (Fab, V domains shown, VL-shuffled Fab of 29B11, periplasmic fraction) VH: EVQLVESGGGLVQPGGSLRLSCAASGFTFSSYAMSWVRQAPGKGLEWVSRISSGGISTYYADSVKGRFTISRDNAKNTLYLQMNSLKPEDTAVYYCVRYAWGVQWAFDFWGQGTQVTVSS VL: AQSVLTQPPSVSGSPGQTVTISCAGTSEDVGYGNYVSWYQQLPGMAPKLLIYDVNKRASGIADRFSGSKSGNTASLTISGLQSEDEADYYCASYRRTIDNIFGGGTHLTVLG", "0.00044 s⁻¹"],
  ["Fab 29B11 (Fab, V domains shown, Fab) VH: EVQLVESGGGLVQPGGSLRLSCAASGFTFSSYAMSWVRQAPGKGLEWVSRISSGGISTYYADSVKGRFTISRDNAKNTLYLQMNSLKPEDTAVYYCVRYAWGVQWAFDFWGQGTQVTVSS VL: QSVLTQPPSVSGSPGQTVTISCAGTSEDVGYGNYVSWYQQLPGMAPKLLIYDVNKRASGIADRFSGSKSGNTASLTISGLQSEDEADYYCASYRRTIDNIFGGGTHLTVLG", "0.000746 s⁻¹"],
  ["Fab 55E2 (Fab, V domains shown, VL-shuffled Fab of 29B11, periplasmic fraction; also called 55E2b) VH: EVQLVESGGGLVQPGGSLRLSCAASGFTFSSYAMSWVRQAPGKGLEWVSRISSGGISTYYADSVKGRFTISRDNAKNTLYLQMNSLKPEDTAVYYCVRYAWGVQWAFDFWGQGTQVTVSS VL: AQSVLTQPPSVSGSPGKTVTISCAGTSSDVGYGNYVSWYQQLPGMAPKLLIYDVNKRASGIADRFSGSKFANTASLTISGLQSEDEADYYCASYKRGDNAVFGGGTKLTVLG", "0.000336 s⁻¹"]
]}

Could you tell me which koff is on file for Fab 55H1 (Fab, V domains shown, VL-shuffled Fab of 29B11, periplasmic fraction; also called 55H1c) VH: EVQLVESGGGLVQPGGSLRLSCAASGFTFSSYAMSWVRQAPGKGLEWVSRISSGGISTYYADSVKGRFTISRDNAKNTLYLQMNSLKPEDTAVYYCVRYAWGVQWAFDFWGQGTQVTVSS VL: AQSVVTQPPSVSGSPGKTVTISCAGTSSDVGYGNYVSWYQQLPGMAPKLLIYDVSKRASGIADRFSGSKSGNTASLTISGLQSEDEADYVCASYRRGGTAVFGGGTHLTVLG ?
0.000615 s⁻¹

Give its koff value. Item: Fab 47C2 (Fab, V domains shown, VL-shuffled Fab of 29B11, periplasmic fraction; also called 47C2 (R4)) VH: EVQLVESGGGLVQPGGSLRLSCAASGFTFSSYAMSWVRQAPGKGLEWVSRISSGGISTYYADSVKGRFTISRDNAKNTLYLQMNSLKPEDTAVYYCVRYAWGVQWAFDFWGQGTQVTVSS VL: LSYDLTQPPSVSGSPGKTVTISCAGTSSDVGYGNYVSWYQQLPGMAPKILIYDVNKRASGIADRFSGSKSGNTASLTISGLQSEDEADYYCASYRRGETIVFGGGTHLTVLG
0.00131 s⁻¹

Field request: koff | item: Fab 55C1 (Fab, V domains shown, VL-shuffled Fab of 29B11, periplasmic fraction; also called 55C1a) VH: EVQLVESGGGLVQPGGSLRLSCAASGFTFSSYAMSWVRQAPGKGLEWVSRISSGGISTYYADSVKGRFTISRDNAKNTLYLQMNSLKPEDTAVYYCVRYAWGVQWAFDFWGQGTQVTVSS VL: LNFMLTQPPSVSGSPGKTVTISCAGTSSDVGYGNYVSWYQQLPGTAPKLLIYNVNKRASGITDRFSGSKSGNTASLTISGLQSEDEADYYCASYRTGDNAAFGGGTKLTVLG
0.000381 s⁻¹
